# Test system: NCI-H23
# Procedure text: NCI tumour cell line growth inhibition, 48 h
The source made the active and inactive calls. No stated cut-off is given here; in the data, active = GI50 up to about 1.1 µM and inactive = higher.
Outcome codes: class 1 = active, class 0 = inactive

[[record]]
compound = "CSc1nc(-c2ccc(C)cc2)c(C#N)c(=O)[nH]1"
classification = "class 0"

[[record]]
compound = "Fc1c(F)c(F)c2c(c1F)CSc1nc3ccccc3n1-2"
classification = "class 0"

[[record]]
compound = "C=C1CC(C)(c2ccc(Nc3nc4ccccc4c4occc34)cc2)OC1=O (stereo not given)"
classification = "class 0"

[[record]]
compound = "COc1cccc(-c2nccc3c(OCc4ccccc4)c(OC)c(OC)cc23)c1"
classification = "class 0"

[[record]]
compound = "CCOC(=O)c1cc(NC(=O)c2ccccc2)c(=O)n2c(cc3c(Cl)cccc32)c1O"
classification = "class 0"

[[record]]
compound = "CO/C(=N\\N=C(/c1ccccc1)C(F)(F)F)c1ccncc1"
classification = "class 0"

[[record]]
compound = "COc1ccc(C2=C(OC(=O)N(C)C)c3cccn3-c3cc(Cl)ccc3S2)cc1"
classification = "class 0"

[[record]]
compound = "NCCN1C(=O)c2ccccc2C1c1ccc(Cl)cc1 (stereo not given)"
classification = "class 0"

[[record]]
compound = "COc1cc([C@@H]2c3cc4c(cc3[C@@H](NC(=O)c3cccc(N)c3)C3COC(=O)[C@@H]32)OCO4)cc(OC)c1O (stereo not given in full)"
classification = "class 1"

[[record]]
compound = "CC1(C)[C@@H]2CC[C@]1(C)[C@H](OC(=O)CSC#N)C2"
classification = "class 0"

[[record]]
compound = "CC1(COS(=O)(=O)OCC2(C)COS(=O)(=O)OC2)COS(=O)(=O)OC1"
classification = "class 0"

[[record]]
compound = "O=C1Nc2ccc(Br)cc2/C1=N/Nc1ccc([N+](=O)[O-])cc1[N+](=O)[O-]"
classification = "class 0"

[[record]]
compound = "Cn1c(=O)cc(NNc2ccc(Cl)c(Cl)c2)[nH]c1=O"
classification = "class 0"

[[record]]
compound = "c1ccc2c(c1)ncn2CCn1ccnc1"
classification = "class 0"

[[record]]
compound = "CCOC(=O)c1cc(C(=O)c2ccccc2)n2nc(-c3ccc(Cl)cc3)ccc12"
classification = "class 0"

[[record]]
compound = "CC(=O)OC1COC(n2c(=S)n(-c3ccccc3)c(=O)c3cc(Br)ccc32)C(OC(C)=O)C1OC(C)=O (stereo not given)"
classification = "class 0"

[[record]]
compound = "C=C(CCCCCCCCC)CC(=O)SCCNC(=O)CCNC(=O)C(O)C(C)(C)COP(=O)(O)OP(=O)(O)OCC1OC(n2cnc3c(N)ncnc32)C(O)C1OP(=O)(O)O (stereo not given)"
classification = "class 0"

[[record]]
compound = "O=C1c2ccccc2C(=O)N1CCn1nc(-c2ccccc2)cc(-c2ccccc2)c1=O"
classification = "class 0"

[[record]]
compound = "CC1CC(=O)C2CC(CO)=CCCC2C1(C)CC/C(=C/CO)CO (stereo not given)"
classification = "class 0"

[[record]]
compound = "COc1ccc(OC)c2sc(N3C(=O)/C(=C/c4cccc([N+](=O)[O-])c4)N=C3c3ccccc3)nc12"
classification = "class 0"


* * *

Measured GI50 accompanies every entry in the list below.
# Tested on: K562
# Procedure text: NCI tumour cell line growth inhibition, 48 h
Active and inactive are the calls of the source. Cut-off read from the data, not from the text of the source: active = GI50 up to about 1.1 µM and inactive = higher. Bridge positions count the residues as written; N and C are the ends. Square brackets hold non-standard residues; d marks the D form. Peptide text beside a SMILES is read from it. * marks the point of attachment. Cbz = O=C(OCc1ccccc1)*; Dab = NCC[CH](N)C(=O)O; Bn = c1ccc(C*)cc1
Outcome measure: GI50

[[record]]
molecule = "CC[N+](CC)(CC)/C(=N\\S(=O)(=O)c1ccc(Cl)cc1)[N-]S(=O)(=O)c1cc(C)c(Cl)cc1S"
meas_value = "6.65 µM (inactive)"

[[record]]
molecule = "CCCCCCCCSC1=C(Cl)C(=O)C(OC)=C(OC)C1=O"
meas_value = "9.71 µM (inactive)"

[[record]]
molecule = "O=C1c2ccccc2C(=O)N1CCn1nc(-c2ccccc2)cc(-c2ccccc2)c1=O"
meas_value = "18.2 µM (inactive)"

[[record]]
molecule = "CCCCCC[C@H]1C(=O)O[C@H](C)[C@H](NC(=O)c2cccc(NC=O)c2OC)C(=O)O[C@@H](C)[C@@H]1OC(=O)C(C)CC.CCCCCC[C@H]1C(=O)O[C@H](C)[C@H](NC(=O)c2cccc(NC=O)c2OC)C(=O)O[C@@H](C)[C@@H]1OC(=O)CC(C)C (some centres not stated)"
meas_value = "7.85 µM (inactive)"

[[record]]
molecule = "CC(C)CC1NC(=O)C(Cc2ccccc2)NC(=O)C(Cc2ccccc2)NC(=O)C(NC(=O)C(Cc2ccc(OCc3ccccc3)cc2)NC(=O)OCc2ccccc2)CCNC1=O (configuration not stated) (Cbz-Y(Bn)[Dab]FFL; lactam 2-C; configuration not given here)"
meas_value = "> 100 µM (inactive)"

[[record]]
molecule = "CCOC(=O)N1CCc2cc(OC)c(OC)cc2/C1=C\\c1ccc(OC)c(OC)c1"
meas_value = "> 10 µM (inactive)"

[[record]]
molecule = "Clc1ccc(-c2nn3c(-c4ccncc4)nnc3s2)cc1"
meas_value = "> 100 µM (inactive)"

[[record]]
molecule = "Cc1ccc(Cc2nn(C)c(=O)n2-n2cccc2)cc1"
meas_value = "> 100 µM (inactive)"

[[record]]
molecule = "CCOC(O)(NC(=O)C(C(F)(F)F)C(F)(F)F)C(F)(F)F (configuration not stated)"
meas_value = "> 100 µM (inactive)"

[[record]]
molecule = "NNC1=Nc2ccc(Cl)cc2C(=S)N2CSCC12 (configuration not stated)"
meas_value = "> 100 µM (inactive)"

[[record]]
molecule = "COCCOCCOCCOc1cccc2c1C(=O)c1cccc(OCCOCCOCCOC)c1C2=O"
meas_value = "37.8 µM (inactive)"

[[record]]
molecule = "COC(=O)C1=Cc2cc(OC)c(O)cc2[C@@H](c2ccc(O)c(OC)c2)[C@@H]1C(=O)OC"
meas_value = "57.3 µM (inactive)"

[[record]]
molecule = "CCOC(=O)c1cnc2oc(-c3ccc(OC)cc3)nn2c1=O"
meas_value = "> 100 µM (inactive)"

[[record]]
molecule = "O=[N+]([O-])c1ccc(/C(=C\\c2ccccc2)Cn2ccnc2)cc1"
meas_value = "17.8 µM (inactive)"

[[record]]
molecule = "N=C1N(c2ccccc2)C(=S)/C(=N/c2ccccc2)N1c1ccccc1"
meas_value = "2.45 µM (inactive)"

[[record]]
molecule = "COc1ccc2c([nH]c3c(O)c(-c4c(C)cc5c([nH]c6c(CC=C(C)C)c(OC)ccc65)c4O)c(C)cc32)c1CC=C(C)C [BISMURRAYAFOLINE B]"
meas_value = "> 100 µM (inactive)"

[[record]]
molecule = "NC1CNC(=O)c2c(Cl)sc(Cl)c21 (configuration not stated)"
meas_value = "> 100 µM (inactive)"


* * *

Measured GI50 accompanies every entry in the list below.
# Test system: UACC-257
# Procedure text: NCI tumour cell line growth inhibition, 48 h
The source made the active and inactive calls. Rule as the data show it: active = GI50 up to about 1.1 µM and inactive = higher.
Outcome measure: GI50

[[record]]
molecule = "COc1cccc2c1C(=O)c1c(O)c3c(c(O)c1C2=O)CC(O)(C(C)=O)CC3O (stereo not drawn)"
outcome_measure = "GI50"
meas_value = "10.6 µM (inactive)"

[[record]]
molecule = "O=C1Nc2ccccc2/C1=N/NC(=S)N1CCCC1"
outcome_measure = "GI50"
meas_value = "6.97 µM (inactive)"

[[record]]
molecule = "Cn1c(O)c(C2=Nc3ccccc3C2=O)c2ccccc21"
outcome_measure = "GI50"
meas_value = "> 100 µM (inactive)"

[[record]]
molecule = "C[n+]1c(/C=C/c2ccc(O)c3ncccc23)[se]c2ccccc21"
outcome_measure = "GI50"
meas_value = "2.29 µM (inactive)"

[[record]]
molecule = "CC(C)C(=O)OCC1OC(n2c(Br)nc3c(=O)[nH]c(N)nc32)C(OC(=O)C(C)C)C1OC(=O)C(C)C (stereo not drawn)"
outcome_measure = "GI50"
meas_value = "> 100 µM (inactive)"

[[record]]
molecule = "CCCCN(CCCC)C(=O)C(=O)CC(=O)/C=C/c1ccccc1"
outcome_measure = "GI50"
meas_value = "> 100 µM (inactive)"

[[record]]
molecule = "O=C(c1ccccc1)c1c(CC(O)c2cccnc2)n(C(=O)c2ccccc2)c2ccccc12 (stereo not drawn)"
outcome_measure = "GI50"
meas_value = "22.4 µM (inactive)"

[[record]]
molecule = "NNC1=Nc2ccc(Cl)cc2C(=S)N2CSCC12 (stereo not drawn)"
outcome_measure = "GI50"
meas_value = "> 100 µM (inactive)"

[[record]]
molecule = "C1=CC=C2NCCOCC/N=C3/C=CC=CC=C3NCCOCC/N=C\\2C=C1"
outcome_measure = "GI50"
meas_value = "20 µM (inactive)"

[[record]]
molecule = "CCOC(=O)c1c(-c2ccc(Br)cc2)ccn1C"
outcome_measure = "GI50"
meas_value = "> 10 µM (inactive)"

[[record]]
molecule = "O=C1CCCn2c(nc3ccccc32)N1"
outcome_measure = "GI50"
meas_value = "> 100 µM (inactive)"

[[record]]
molecule = "O=C(CCN1CCOCC1)c1ccc(Oc2ccc(F)cc2)cc1"
outcome_measure = "GI50"
meas_value = "17.7 µM (inactive)"

[[record]]
molecule = "CNC(C)Cc1ccc(O)cc1 (stereo not drawn)"
outcome_measure = "GI50"
meas_value = "> 100 µM (inactive)"

[[record]]
molecule = "COc1ccc2c(c1)/C(=C\\c1c(Cl)[nH]c3ccccc13)C(=O)N2"
outcome_measure = "GI50"
meas_value = "6.14 µM (inactive)"

[[record]]
molecule = "CC(=O)C1(C(=O)C(=[N+]=[N-])S(=O)(=O)c2ccccc2)CC1"
outcome_measure = "GI50"
meas_value = "> 100 µM (inactive)"

[[record]]
molecule = "CC1=NN(C(=O)Cc2ccccc2)C(=O)/C1=C\\C=C\\c1ccccc1"
outcome_measure = "GI50"
meas_value = "> 100 µM (inactive)"

[[record]]
molecule = "CCOC(=O)C(NC(=O)c1nc[nH]c1/N=N/N(C)C)C(C)C (stereo not drawn)"
outcome_measure = "GI50"
meas_value = "> 100 µM (inactive)"

[[record]]
molecule = "C1CCN2CC3CONC3C2C1 (stereo not drawn)"
outcome_measure = "GI50"
meas_value = "> 100 µM (inactive)"

[[record]]
molecule = "COP(=O)(OC)/C(=C\\C1=CN(C(c2ccccc2)(c2ccccc2)c2ccccc2)CN1)NC=O"
outcome_measure = "GI50"
meas_value = "18.9 µM (inactive)"

[[record]]
molecule = "Cc1ccc(Cc2nn(C)c(=O)n2-n2cccc2)cc1"
outcome_measure = "GI50"
meas_value = "56.8 µM (inactive)"

[[record]]
molecule = "Clc1ccc(C2ON=C(c3ccccc3)N2C23CC4CC(CC(C4)C2)C3)cc1 (stereo not drawn)"
outcome_measure = "GI50"
meas_value = "> 10 µM (inactive)"

[[record]]
molecule = "C1=CC(=NN=P(c2ccccc2)(c2ccccc2)c2ccccc2)C=C1"
outcome_measure = "GI50"
meas_value = "> 100 µM (inactive)"

[[record]]
molecule = "Cc1c(-c2ccccc2)c(C#N)c2nnn(-c3ccccc3)c(=O)n12"
outcome_measure = "GI50"
meas_value = "> 100 µM (inactive)"


Hey, just so you know, these numbers are from ChEMBL document CHEMBL1201862.
